TGT: AAK1 (UniProt A0A096LP25)
ASSAY SUMMARY: log2 fold change, soluble protein after heating vs DMSO (PISA); higher = thermal stabilisation; K562 cells, 10 uM, 30 min; active = over 0.2 and 3.5 SD of the protein, either way, in both replicates (recomputed)
The full data set covers some 7,900 targets. This sample favours those with a hit. About 0.6% of all pairs of compound and target were hits.
RECORDED ENDPOINT: log2 fold change
Output: the number by itself.

Previously resolved entries follow.
{"columns": ["COMPOUND", "VALUE REPORTED"],
 "data": [
  ["Cc1ccc2c(=O)c3ccccc3n(CCCN)c2c1C", -0.044],
  ["CC[C@@H]1C(=O)N(C)c2cnc(Nc3ccc(C(=O)NC4CCN(C)CC4)cc3OC)nc2N1C1CCCC1", -0.086],
  ["CC(C)C[C@@H](C=O)NC(=O)[C@H](CC(C)C)NC(=O)[C@H](CC(C)C)NC(=O)OCc1ccccc1", 0.065],
  ["CCN(CC)Cc1ccc2cc(COC(=O)Nc3ccc(C(=O)NO)cc3)ccc2c1", 0.056],
  ["C[C@H](Nc1ncnc2nc[nH]c12)c1cc2cccc(Cl)c2c(=O)n1-c1ccccc1", 0.007]
]}

log2 fold change for `CS(=O)(=O)N1CCN(Cc2cc3nc(-c4cccc5[nH]ncc45)nc(N4CCOCC4)c3s2)CC1` is 0.16

log2 fold change for `O=C1NC(=NCc2cccs2)S/C1=C\c1ccc2ncccc2c1` is 0.234

log2 fold change for `Cn1cc(-c2ccc3c(c2)CCN3C(=O)Cc2cccc(C(F)(F)F)c2)c2c(N)ncnc21` is -0.05

log2 fold change for `CC(C)(O)CC(=O)NCCn1ccc2ncnc(Nc3ccc(Oc4cccc(C(F)(F)F)c4)c(Cl)c3)c21` is -0.034

log2 fold change for `Cc1cn(-c2cc(NC(=O)c3ccc(C)c(Nc4nccc(-c5cccnc5)n4)c3)cc(C(F)(F)F)c2)cn1` is -0.084

log2 fold change for `NC1(c2ccc(-c3nc4ccn5c(=O)[nH]nc5c4cc3-c3ccccc3)cc2)CCC1` is 0.048

log2 fold change for CN(CCOc1ccc(C[C@@H]2SC(=O)NC2=O)cc1)c1ccccn1 (racemic) is 0.107

log2 fold change for `Cc1ncc(-c2ccnc(Nc3ccc(S(C)(=O)=O)cc3)n2)n1C(C)C` is 0.028

log2 fold change for `O=C(CCCCCCC(=O)Nc1ccccc1)NO` is -0.007

====

Reported log2 fold change is given for each of the following compounds.
TGT: AAK1 (UniProt Q2M2I8)
Sequence (Q2M2I8 whole entry, looked up): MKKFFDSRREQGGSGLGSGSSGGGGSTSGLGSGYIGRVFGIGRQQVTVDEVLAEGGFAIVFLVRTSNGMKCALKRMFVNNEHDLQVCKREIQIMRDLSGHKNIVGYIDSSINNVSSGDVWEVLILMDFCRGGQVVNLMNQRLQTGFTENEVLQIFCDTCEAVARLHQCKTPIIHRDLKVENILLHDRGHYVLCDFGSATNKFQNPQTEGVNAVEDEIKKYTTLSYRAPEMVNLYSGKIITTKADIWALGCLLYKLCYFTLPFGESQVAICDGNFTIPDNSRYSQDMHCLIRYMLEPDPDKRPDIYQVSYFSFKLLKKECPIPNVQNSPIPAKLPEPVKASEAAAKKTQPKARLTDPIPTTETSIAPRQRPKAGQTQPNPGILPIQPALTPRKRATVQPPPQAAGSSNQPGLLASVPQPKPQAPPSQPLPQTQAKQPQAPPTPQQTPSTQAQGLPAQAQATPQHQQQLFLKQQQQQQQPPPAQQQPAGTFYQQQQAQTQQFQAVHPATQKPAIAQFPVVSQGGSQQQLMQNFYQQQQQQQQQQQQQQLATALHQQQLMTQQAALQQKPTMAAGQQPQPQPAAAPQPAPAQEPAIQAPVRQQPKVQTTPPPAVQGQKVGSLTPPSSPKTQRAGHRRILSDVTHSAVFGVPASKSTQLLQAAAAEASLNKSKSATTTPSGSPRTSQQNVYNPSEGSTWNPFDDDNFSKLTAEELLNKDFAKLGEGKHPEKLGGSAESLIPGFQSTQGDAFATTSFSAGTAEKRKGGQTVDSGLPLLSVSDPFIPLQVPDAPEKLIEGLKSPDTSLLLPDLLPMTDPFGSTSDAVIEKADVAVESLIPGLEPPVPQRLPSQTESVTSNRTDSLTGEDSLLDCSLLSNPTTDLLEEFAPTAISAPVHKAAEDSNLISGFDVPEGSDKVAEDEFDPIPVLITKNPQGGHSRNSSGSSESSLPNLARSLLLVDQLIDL
ASSAY SUMMARY: log2 fold change, soluble protein after heating vs DMSO (PISA); higher = thermal stabilisation; K562 cells, 10 uM, 30 min; active = over 0.2 and 3.5 SD of the protein, either way, in both replicates (recomputed)
Targets with a hit are over-represented here; the source holds about 7,900 in all. About 0.6% of all pairs of compound and target were hits.
Output: the number by itself.

Previously resolved entries follow.
{"columns": ["COMPOUND", "RECORDED ENDPOINT", "VALUE REPORTED"],
 "data": [
  ["CN(CCOc1ccc(C[C@@H]2SC(=O)NC2=O)cc1)c1ccccn1 (racemic)", "log2 fold change", 0.04],
  ["Cc1cc(Nc2cc(N3CCN(C)CC3)nc(Sc3ccc(NC(=O)C4CC4)cc3)n2)n[nH]1", "log2 fold change", 0.211]
]}

log2 fold change for `Cc1ncc(-c2ccnc(Nc3ccc(S(C)(=O)=O)cc3)n2)n1C(C)C` is 0.219

====

Reported log2 fold change is given for each of the following molecules.
TGT: AAK1 (UniProt Q2M2I8)
ASSAY SUMMARY: log2 fold change, soluble protein after heating vs DMSO (PISA); higher = thermal stabilisation; K562 cells, 10 uM, 30 min; active = over 0.2 and 3.5 SD of the protein, either way, in both replicates (recomputed)
About 7,900 targets were measured; listed, in parts, are those with a hit and a random draw of the rest. About 0.6% of all pairs of compound and target were hits.
Output: the number by itself.

The reported log2 fold change value, AAK1 (UniProt Q2M2I8), for C[C@H](Nc1ncnc2nc[nH]c12)c1cc2cccc(Cl)c2c(=O)n1-c1ccccc1 [duvelisib] reads 0.186

====

Reported log2 fold change is given for each of the following compounds.
TGT: AAK1 (UniProt A0A096LP25)
ASSAY SUMMARY: log2 fold change, soluble protein after heating vs DMSO (PISA); higher = thermal stabilisation; K562 cells, 10 uM, 30 min; active = over 0.2 and 3.5 SD of the protein, either way, in both replicates (recomputed)
About 7,900 targets were measured; listed, in parts, are those with a hit and a random draw of the rest. About 0.6% of all pairs of compound and target were hits.
Output: the number by itself.

Previously resolved entries follow.
{"columns": ["COMPOUND", "log2 fold change"],
 "data": [
  ["CC1=C(C(=O)Nc2cc3cn[nH]c3cc2F)C(c2ccc(C(F)(F)F)cc2)CC(=O)N1 (stereo not drawn)", -0.113],
  ["Oc1cc(-c2nc(-c3ccccc3)[nH]c2-c2ccncc2)ccc1Cl", 0.017]
]}

The reported log2 fold change value, AAK1 (UniProt A0A096LP25), for `COC(=O)N[C@@H](C)CNc1nccc(-c2cn(C(C)C)nc2-c2cc(Cl)cc(NS(C)(=O)=O)c2F)n1` reads 0.033

====

TGT: AAGAB (UniProt Q6PD74)
Sequence (Q6PD74 whole entry, looked up): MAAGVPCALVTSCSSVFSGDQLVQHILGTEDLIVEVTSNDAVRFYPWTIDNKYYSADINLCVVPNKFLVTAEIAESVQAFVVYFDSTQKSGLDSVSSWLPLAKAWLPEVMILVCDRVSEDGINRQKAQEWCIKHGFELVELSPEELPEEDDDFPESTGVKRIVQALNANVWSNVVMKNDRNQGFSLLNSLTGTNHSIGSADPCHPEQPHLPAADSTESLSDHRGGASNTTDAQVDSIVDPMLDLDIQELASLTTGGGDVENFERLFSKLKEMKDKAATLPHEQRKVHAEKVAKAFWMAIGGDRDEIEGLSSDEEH
ASSAY SUMMARY: log2 fold change, soluble protein after heating vs DMSO (PISA); higher = thermal stabilisation; K562 cells, 10 uM, 30 min; active = over 0.2 and 3.5 SD of the protein, either way, in both replicates (recomputed)
Targets with a hit are over-represented here; the source holds about 7,900 in all. About 0.6% of all pairs of compound and target were hits.
Reported log2 fold change is given for each of the following compounds.
Output: the number by itself.

Previously resolved entries follow.
{"columns": ["CHEMICAL STRUCTURE", "VALUE REPORTED"],
 "data": [
  ["CC(C)(O)CC(=O)NCCn1ccc2ncnc(Nc3ccc(Oc4cccc(C(F)(F)F)c4)c(Cl)c3)c21", -0.146],
  ["Nc1ccccc1NC(=O)c1ccc(CNC(=O)OCc2cccnc2)cc1", 0.004],
  ["CN1CCN(CCOc2cc(OC3CCOCC3)c3c(Nc4c(Cl)ccc5c4OCO5)ncnc3c2)CC1", 0.168],
  ["C[C@@H](Oc1cc(-c2cnn(C3CCNCC3)c2)cnc1N)c1c(Cl)ccc(F)c1Cl", -0.134]
]}

log2 fold change for `COc1ccc(Cn2ccc3ccc(C(=O)NO)cc32)cc1` is -0.017

====

TGT: AAK1 (UniProt Q2M2I8)
ASSAY SUMMARY: log2 fold change, soluble protein after heating vs DMSO (PISA); higher = thermal stabilisation; K562 cells, 10 uM, 30 min; active = over 0.2 and 3.5 SD of the protein, either way, in both replicates (recomputed)
About 7,900 targets were measured; listed, in parts, are those with a hit and a random draw of the rest. About 0.6% of all pairs of compound and target were hits.
Reported log2 fold change is given for each of the following compounds.
Output: the number by itself.

{"columns": ["COMPOUND", "RECORDED ENDPOINT", "VALUE REPORTED"],
 "data": [
  ["O=C1c2ccccc2-c2n[nH]c3cccc1c23", "log2 fold change", 0.319],
  ["CC(C)N(C[C@H]1O[C@@H](n2cnc3c(N)ncnc32)[C@H](O)[C@@H]1O)[C@H]1C[C@@H](CCc2nc3cc(C(C)(C)C)ccc3[nH]2)C1 [pinometostat]", "log2 fold change", -0.05]
]}

Now, please, on to the next compound.
log2 fold change for `O=C1NC(=NCc2cccs2)S/C1=C\c1ccc2ncccc2c1` is 0.339
